Reported normalized growth values are given for each entry in this list.
# experimentalProtocol: chemical genetic growth profiling, strain panel (AID 1159580);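 also: tested at 20 µM; growth read once vehicle control cultures reached saturation at 30 °C; 1 = growth at the plate median or of vehicle wells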
# runParameters: S. cerevisiae deletion strains, growth OD, locus YBR023C, strain chs3, hits give low values
Out of some 5,500 compounds screened, about 2,000 (36%) were called active. Not shown: some 18% with an inconclusive outcome. Some of the results follow.
# answer = number (no unit)

Please look up its normalized growth: "O=C(/C=C(\O)c1ccccc1)c1ccccc1O"
0.778

Using the record for "O=C(O)c1ccccc1O" , report its normalized growth.
0.995

Continuing:
Need normalized growth, item "COC(=O)NC(=S)Nc1ccccc1NC(=S)NC(=O)OC"
0.966

Item "CCc1ccc2c(O)c3c(cc2c1C(=O)OC)C(=O)c1c(O)ccc(O)c1C3=O" has what recorded normalized growth?
0.975

Using the record for CC1=CC(=O)C2C(C)(C)CCC[C@]2(C)[C@@]1(O)CCc1ccoc1 (some centres not stated) , report its normalized growth.
0.982

Using the record for "O=C(Oc1cccc2cccnc12)c1ccccc1" , report its normalized growth.
0.956

Returns the measured normalized growth for the input compound. Input: "OC1(c2ccc(Cl)c(C(F)(F)F)c2)CCN(CCCC(c2ccc(F)cc2)c2ccc(F)cc2)CC1"
0.0682

Dear colleague, I am looking for the recorded normalized growth of the following compound: "COc1c(O)cc2c(c1O)[C@H]1O[C@H](CO)[C@@H](O)[C@H](O)[C@@H]1OC2=O"
1.03

Give its normalized growth value. Item: "COc1ccc(-c2cc(=O)c3c(O)cc(O)cc3o2)cc1"
0.961

Dear colleague, I am looking for the recorded normalized growth of the following compound: NS(=O)(=O)c1cc2c(cc1C(F)(F)F)NC(Cc1ccccc1)NS2(=O)=O (configuration not stated)
0.992

Entry under review: "COc1ccc(-c2cc(=O)c3c(O)cc(O)c(-c4cc(-c5cc(=O)c6c(O)cc(O)cc6o5)ccc4OC)c3o2)cc1" . Reported normalized growth?
1

* * *

# experimentalProtocol: chemical genetic growth profiling, strain panel (AID 1159580)
# runParameters: S. cerevisiae deletion strains, growth OD, locus YJL095W, strain BCK1, hits give low values
Hit rate of the full screen: of about 5,500 compounds, about 2,000 (36%) were called active. Another 18% or so got no clear call; they are omitted. This is one part of the list.
readoutLabel: normalized growth
Give only the figure.

Answered cases to consult:
Need normalized growth, item "O=C(Nc1ccc(SC(F)(F)F)cc1)Nc1ccc(Oc2cccc(C(F)(F)F)c2)nc1"
0.975

# query: normalized growth of entry "COc1cc(O)c2c(=O)cc(-c3ccc(O)cc3)oc2c1"
1.05

Record request: normalized growth value, item "C/C=C(/C)C(=O)O[C@@H]1Cc2c(ccc3ccc(=O)oc23)OC1(C)C"
0.937

New cases:
I would be grateful if you could share the reported normalized growth for "COc1cccc2c1CCC1=CC(=O)CC[C@@]12C" .
0.972

Dear colleague, I am looking for the recorded normalized growth of the following compound: "COc1ccc(-c2cc(=O)c3c(OC)c(OC)c(OC)cc3o2)cc1OC"
0.974

Any idea what its normalized growth is? The compound is "CC(=O)O[C@@H]1c2c(ccc3ccc(=O)oc23)OC(C)(C)[C@@H]1OC(=O)CC(C)C"
0.94

* * *

# experimentalProtocol: chemical genetic growth profiling, strain panel (AID 1159580)
# runParameters: S. cerevisiae deletion strains, growth OD, locus YGL253W, strain hxk2, hits give low values
Hit rate of the full screen: of about 5,500 compounds, about 2,000 (36%) were called active. Roughly 18% stayed inconclusive and do not appear here. The list shows a part of the results.
Please assign -1 whenever normalized growth is at or above 1, and 1 whenever it is below.

Before answering, review these 5 worked examples.
Given "NCCCN" , is recorded normalized growth strictly lower than 1?
1

Does this molecule meet the criterion normalized growth < 1? "Cc1ncc(CO)c(CO)c1O"
-1

API: query returns whether the molecule falls strictly under 1 in normalized growth. Query: "O=C(Oc1cccc2cccnc12)c1ccccc1"
1

Is 1 strictly greater than the molecule's reported normalized growth? molecule: "OC1(c2ccc(Cl)c(C(F)(F)F)c2)CCN(CCCC(c2ccc(F)cc2)c2ccc(F)cc2)CC1"
1

is_below(normalized growth, 1) for "O=C(CCCN1CCN(c2ccccn2)CC1)c1ccc(F)cc1" ?
1

New cases:
Strictly below 1 in normalized growth? COC1CC(OC2CCC3(C)C(CCC4C3CCC3(C)C(C5=CC(=O)OC5)C(OC(C)=O)CC43O)C2)OC(C)C1O (stereo unspecified)
-1

Input "Nc1ccc(S(=O)(=O)Nc2ncccn2)cc1" ; condition: normalized growth strictly below 1. Does it hold?
1

Does this molecule meet the criterion normalized growth < 1? "Oc1ccc([C@H]2Oc3cc(O)cc(O)c3C[C@H]2O)cc1"
1

In plain terms, does "COc1nc(NC(C)C)nc(NC(C)C)n1" come in under 1 for normalized growth?
-1

Consider CC(=O)OC1CC[C@@]2(C)C(CCC3C2CC[C@]2(C)C(C4=CC(=O)OC4)C(OC(C)=O)CC32O)C1 (stereo partly specified) . Does its normalized growth lie strictly below 1?
1

Decide: normalized growth of "O=C(Oc1ccccc1C(=O)O)c1ccccc1O" strictly below 1?
1

Check if normalized growth falls below 1 for "CC[C@@]1(O)C(=O)OCc2c1cc1n(c2=O)Cc2cc3ccccc3nc2-1" .
1

* * *

# experimentalProtocol: chemical genetic growth profiling, strain panel (AID 1159580)
# runParameters: S. cerevisiae deletion strains, growth OD, locus YKR091W, strain srl3, hits give low values
The campaign covered roughly 5,500 compounds. About 2,000 (36%) were called active. Inconclusive results (about 18%) are left out. The list shows a part of the results.
Cut-off 1 on normalized growth: below means 1.0, at or above means 0.0.

Lab note: normalized growth threshold 1. Does this molecule come in strictly under it? "O=C(CCCN1CCC(O)(c2ccc(Cl)cc2)CC1)c1ccc(F)cc1"
0.0

Further cases:
Could you please tell me whether normalized growth recorded for "C=CCSSCC=C" is less than 1?
0.0

Criterion: normalized growth strictly below 1. Is it met by CC1(C)Oc2ccc3ccc(=O)oc3c2CC1O (stereo not drawn) ?
1.0

* * *

# experimentalProtocol: chemical genetic growth profiling, strain panel (AID 1159580);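 also: tested at 20 µM; growth read once vehicle control cultures reached saturation at 30 °C; 1 = growth at the plate median or of vehicle wells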
# runParameters: S. cerevisiae deletion strains, growth OD, locus YDL005C, strain med2, hits give low values
The whole screen tested about 5,500 compounds, of which about 2,000 (36%) were called active. Not shown: some 18% with an inconclusive outcome. The list shows a part of the results.
Each item that follows carries a reported normalized growth.
Field format: numeric only.

For orientation, consider the following solved cases.
Param item = "Nc1ccc(S(=O)(=O)Nc2ncccn2)cc1" ; retrieve measured normalized growth.
0.985

Which measured normalized growth value corresponds to CC(C)(C)NCC(O)COc1cccc2c1C[C@H](O)[C@H](O)C2 (stereo partly specified) ?
1.01

Which measured normalized growth value corresponds to CC(C)=CC1C(CO)C1(C)C (stereo unspecified) ?
1.03

Others:
For the compound CC1(C)S[C@@H]2C(N3C(=O)[C@@H](c4ccccc4)NC3(C)C)C(=O)N2[C@H]1C(=O)O (stereo partly specified) , what normalized growth is on record?
1.02

Which measured normalized growth value corresponds to C/C=C/CC(C)C(O)C1C(=O)NC(CC)C(=O)N(C)CC(=O)N(C)C(CC(C)C)C(=O)NC(C(C)C)C(=O)N(C)C(CC(C)C)C(=O)NC(C)C(=O)NC(C)C(=O)N(C)C(CC(C)C)C(=O)N(C)C(CC(C)C)C(=O)N(C)C(C(C)C)C(=O)N1C (stereo unspecified) ?
1.01

* * *

Measured normalized growth of individual entries
# experimentalProtocol: chemical genetic growth profiling, strain panel (AID 1159580);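 also: tested at 20 µM; growth read once vehicle control cultures reached saturation at 30 °C; 1 = growth at the plate median or of vehicle wells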
# runParameters: S. cerevisiae deletion strains, growth OD, locus YLR384C, strain iki3, hits give low values
The whole screen tested about 5,500 compounds, of which about 2,000 (36%) were called active. Another 18% or so got no clear call; they are omitted. Some of the results follow.
The reply should be a number, written without any unit.

Which normalized growth is listed for COC1CC(OC2CCC3(C)C(CCC4C3CCC3(C)C(C5=CC(=O)OC5)C(OC(C)=O)CC43O)C2)OC(C)C1O (configuration not stated) ?
1.02

Quick one: normalized growth of Cc1ccccc1N1C(=O)c2cc(S(N)(=O)=O)c(Cl)cc2NC1C (configuration not stated) ?
0.961

Quick check: normalized growth of "CC1=CC(=O)C(C(C)C)=CC1=O" ?
0.987

I am curious: what normalized growth value has been reported for "O=C(/C=C(\O)c1ccccc1)c1ccccc1O" ?
0.92

New cases:
Query: normalized growth; subject: "NC(=O)c1ccccc1O"
0.963

I would be grateful if you could share the reported normalized growth for "O=C(O)c1ccccc1O" .
0.96

* * *

Below, each entry is listed alongside its reported normalized growth.
# experimentalProtocol: chemical genetic growth profiling, strain panel (AID 1159580);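 also: tested at 20 µM; growth read once vehicle control cultures reached saturation at 30 °C; 1 = growth at the plate median or of vehicle wells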
# runParameters: S. cerevisiae deletion strains, growth OD, locus YEL037C, strain rad23, hits give low values
In all, about 5,500 compounds went through this assay and about 2,000 (36%) were called active. Another 18% or so got no clear call; they are omitted. The list shows a part of the results.
Keep it simple and answer with nothing but the number.

Worked cases, answers included:
// returns reported normalized growth for input Cc1ccccc1N1C(=O)c2cc(S(N)(=O)=O)c(Cl)cc2NC1C (configuration not stated)
0.978

Item "Cc1ncc(CO)c(CO)c1O" has what recorded normalized growth?
1.02

Which normalized growth value belongs to CC1Cc2ccccc2N1NC(=O)c1ccc(Cl)c(S(N)(=O)=O)c1 (configuration not stated) ?
1

Query (compound): "C=CCSCC=C" ; field requested: normalized growth
0.972

Could you tell me which normalized growth is on file for "COC(=O)[C@H]1[C@H]2C[C@H]3c4[nH]c5cc(OC)ccc5c4CCN3C[C@H]2C[C@@H](OC(=O)c2cc(OC)c(OC)c(OC)c2)[C@@H]1OC" ?
1.02

# normalized growth lookup, item "CC[C@@]1(O)C(=O)OCc2c1cc1n(c2=O)Cc2cc3ccccc3nc2-1"
0.851

// lookup normalized growth for "C=CCSSSCC=C"
0.958

For "COc1ccc(-c2cc(=O)c3c(O)cc(O)cc3o2)cc1" , what is its reported normalized growth?
0.994

Form field: reported normalized growth of CC(C)(C)NCC(O)COc1cccc2c1C[C@H](O)[C@H](O)C2 (some centres not stated)
1.01

Dear colleague, I am looking for the recorded normalized growth of the following compound: "CC[C@@]1(O)C(=O)OCc2c1cc1n(c2=O)Cc2cc3cc(O)ccc3nc2-1"
1.01

---
For the compound "NC(=O)c1ccc([N+](=O)[O-])cc1Cl" , what normalized growth is on record?
0.983

Requested field: normalized growth. Item: "C=CCSSCC=C"
1.03
